# Tested on: Colon cancer organoid
# RUN DESCRIPTION: Identification of compartment-specific drug sensitivities in O06 CRC organoid-stroma F06 CAF co-cultures. Organoid is transduced with Lucferase2-P2A-EGFP lentivirus, fibroblast with Renilla-dsRed lentivirus. Dual-Glo Luciferase assay is used to report viability data.
# Format: functional, Homo sapiens
# Design: dose or concentration left out as unconfirmed
# CONDITION NOTES: Transduced with Renilla-dsRed lentivirus
Reported Cell Viability values are given for each entry in this list.

Use these answered entries as a reference point.
MOLECULE: NS(=O)(=O)c1cc(NC(=O)C2(c3ccccc3Cl)CC2)ccc1Oc1cccc(Cl)c1 [BAY-207]
Cell Viability: 97.9535%
--
MOLECULE: CC(=O)C1=C(C)N(c2cccc(C(F)(F)F)c2)C(=O)N[C@@H]1c1ccc(C#N)nc1 [BAY-678]
Cell Viability: 136.382%
--
MOLECULE: OCCn1cc(-c2cnc3nnn(Cc4ccc5ncccc5c4)c3n2)cn1 [PF-04217903]
Cell Viability: 107.387%
--
MOLECULE: NS(=O)(=O)c1cc(NC(=O)Cc2ccccc2)ccc1Oc1cccc(Cl)c1 [BAY-1797]
Cell Viability: 298.319%

Which Cell Viability value is on record for CCC(=O)N1CCN(c2ccc(-n3c(=O)ccc4cnc5ccc(-c6cnc7ccccc7c6)cc5c43)cc2C(F)(F)F)CC1 [TORIN1] ?
40.1911%

###

# Test system: Colon cancer organoid
# RUN DESCRIPTION: Identification of compartment-specific drug sensitivities in O06 CRC organoid-stroma F06 CAF co-cultures. Organoid is transduced with Lucferase2-P2A-EGFP lentivirus, fibroblast with Renilla-dsRed lentivirus. Dual-Glo Luciferase assay is used to report viability data.
# Format: functional, Homo sapiens
# Set-up: dose or concentration left out as unconfirmed
# CONDITION NOTES: Transduced with Renilla-dsRed lentivirus
Readings of Cell Viability for the listed molecules
Answer format: numeric, % implied, no suffix.

Answered cases to consult:
MOLECULE: COc1cc(C(=O)N2CC[C@@H](O)[C@@H](N)C2)cc2nc(-c3cc4ccccc4n3CC3CC3)n(C)c12.Cl
TARGET ENTITY: Colon cancer organoid
UNIT TEXT: %
Cell Viability: 121.721

MOLECULE: O=C(NCc1ccccc1)c1ccc(S(=O)(=O)NCc2ccccc2)cc1
TARGET ENTITY: Colon cancer organoid
UNIT TEXT: %
Cell Viability: 131.443

MOLECULE: CC(C)Oc1ccc(-c2nn([C@@H](C)c3oc4ccc(F)cc4c(=O)c3-c3cccc(F)c3)c3ncnc(N)c23)cc1F [UMBRALISIB]
TARGET ENTITY: Colon cancer organoid
UNIT TEXT: %
Cell Viability: 112.425

Which Cell Viability reading was recorded for the molecule COc1ccc2c(O[C@@H]3C[C@H]4C(=O)N[C@]5(C(=O)O)CC5/C=C\CCCCC[C@H](NC(=O)OC5CCCC5)C(=O)N4C3)cc(-c3csc(NC(=O)C(C)C)n3)nc2c1C (some centres not stated) [BI 1230] ?
125.746

Try this molecule next: Cc1ccc2nc(CNCCCOc3ccccc3)cc(O)c2c1 [UCSF924]
156.395

Also, CNC(=O)c1ccccc1Nc1cc(Nc2ccc(N3CCOCC3)cc2OC)ncc1C(F)(F)F [VS-4718] please.
57.2971

Request: CC1(C)C(N)=Nc2cc(OCCCCN3Cc4ccc(OCc5cn(CC(=O)N6CCC(CCN7CCCC7)CC6)nn5)cc4C3)c(OCC3CC3)cc21
114.368
